Catalogue of compounds with associated pIC50
- Test system: HIV-1NL4-3
- assay_explanation: P4-MAGI assay
- Assay type: cell-based
- measurement_context: Human immunodeficiency virus 1, 24 h, P4 cells, 24 hour incubation, β-galactosidase expression; read-out: P4-MAGI IC50
FYI, pIC50 means -log10 of a concentration in mol per litre.

C=C(C)[C@@H]1CC[C@]2(C(=O)NCCc3cccc(C(=O)NCc4ccc(C(=O)O)cn4)c3)CC[C@]3(C)C(CCC4[C@@]5(C)CC[C@H](O)C(C)(C)C5CC[C@]43C)C12 (some centres unmarked)    7.98
C=C(C)[C@@H]1CC[C@]2(C(=O)NCCc3cccc(C(=O)NCc4ccc(C(=O)NCCN5CCCCC5)cc4)c3)CC[C@]3(C)C(CCC4[C@@]5(C)CC[C@H](O)C(C)(C)C5CC[C@]43C)C12 (some centres unmarked)    7.03
C=C(C)[C@@H]1CC[C@]2(C(=O)NCCc3cccc(C(=O)NCCC(=O)O)c3)CC[C@]3(C)C(CCC4[C@@]5(C)CC[C@H](O)C(C)(C)C5CC[C@]43C)C12 (some centres unmarked)    7.01
C=C(C)[C@@H]1CC[C@]2(C(=O)NCCc3cccc(C(=O)NC(Cc4ccc(OCC(=O)O)cc4)C(=O)O)c3)CC[C@]3(C)C(CCC4[C@@]5(C)CC[C@H](O)C(C)(C)C5CC[C@]43C)C12 (some centres unmarked)    6.71

// moving on: another record for pIC50
-- ask Print HIV-1NL4-3 pIC50 for C=C(C)[C@@H]1CC[C@]2(C(=O)NCCc3cccc(C(=O)NCc4ccccc4OC)c3)CC[C@]3(C)C(CCC4[C@@]5(C)CC[C@H](O)C(C)(C)C5CC[C@]43C)C12 (some centres unmarked) .
-- reply 7.12

* * *

- Tested on: HIV-1NL4-3
- assay_explanation: P4-MAGI assay
- Assay type: cell-based
- measurement_context: Human immunodeficiency virus 1, 24 h, P4 cells, 24 hour incubation, β-galactosidase expression; read-out: P4-MAGI IC50
observation_type: pIC50
FYI, pIC50 means -log10 of a concentration in mol per litre.

Example cases with answers are listed next.
C=C(C)[C@@H]1CC[C@]2(C(=O)NCCc3cccc(C(=O)NCc4ccc(OCCCn5cncc5C(=O)O)c(C(=O)O)c4)c3)CC[C@]3(C)C(CCC4[C@@]5(C)CC[C@H](O)C(C)(C)C5CC[C@]43C)C12 (some centres unmarked)    7.24
C=C(C)[C@@H]1CC[C@]2(C(=O)NCCc3cccc(C(=O)NCc4ccc(C(=O)N[C@H](C(=O)O)C(C)C)cn4)c3)CC[C@]3(C)C(CCC4[C@@]5(C)CC[C@H](O)C(C)(C)C5CC[C@]43C)C12 (some centres unmarked)    7.93
C=C(C)[C@@H]1CC[C@]2(C(=O)NCCc3cccc(C(=O)NCc4ccccc4O)c3)CC[C@]3(C)C(CCC4[C@@]5(C)CC[C@H](O)C(C)(C)C5CC[C@]43C)C12 (some centres unmarked)    7.24
C=C(C)[C@@H]1CC[C@]2(C(=O)NCCc3cccc(C(=O)NCCc4ccc(O)cc4)c3)CC[C@]3(C)C(CCC4[C@@]5(C)CC[C@H](O)C(C)(C)C5CC[C@]43C)C12 (some centres unmarked)    7.58

// moving on: another record for pIC50
-- ask Print HIV-1NL4-3 pIC50 for C=C(C)[C@@H]1CC[C@]2(CC(=O)NCc3cccc(C(=O)NCc4cccc(C(=O)O)c4)c3)CC[C@]3(C)C(CCC4[C@@]5(C)CC[C@H](O)C(C)(C)C5CC[C@]43C)C12 (some centres unmarked) .
-- reply 5.47

* * *

- System: HIV-1NL4-3
- assay_explanation: P4-MAGI assay
- Format: cell-based
- measurement_context: Human immunodeficiency virus 1, 24 h, P4 cells, 24 hour incubation, β-galactosidase expression; read-out: P4-MAGI IC50
Catalogue of compounds with associated IC50
Write it as a number; the unit nM goes unstated.

C=C(C)[C@@H]1CC[C@]2(C(=O)NCc3cccc(CNC(=O)c4cc(C(=O)O)ccc4C(=O)O)c3)CC[C@]3(C)C(CCC4[C@@]5(C)CC[C@H](O)C(C)(C)C5CC[C@]43C)C12 (some centres unmarked)    412
C=C(C)[C@@H]1CC[C@]2(C(=O)NCCc3cccc(C(=O)NC4CCC(C(=O)OC)CC4)c3)CC[C@]3(C)C(CCC4[C@@]5(C)CC[C@H](O)C(C)(C)C5CC[C@]43C)C12 (some centres unmarked)    193
C=C(C)[C@@H]1CC[C@]2(C(=O)NCCc3cccc(C(=O)NCc4nc(C(=O)OC)co4)c3)CC[C@]3(C)C(CCC4[C@@]5(C)CC[C@H](O)C(C)(C)C5CC[C@]43C)C12 (some centres unmarked)    36

-- ask Look up and report measured IC50 for this entry: C=C(C)[C@@H]1CC[C@]2(C(=O)NCCc3cccc(C(=O)NCc4ccc(C(=O)NCCC5CCCN5C)cc4)c3)CC[C@]3(C)C(CCC4[C@@]5(C)CC[C@H](O)C(C)(C)C5CC[C@]43C)C12 (some centres unmarked)
-- reply 50

-- ask Look up and report measured IC50 for this entry: C=C(COC)[C@@H]1CC[C@]2(C(=O)NCCc3cccc(C(=O)NCc4ccc(C(=O)O)cn4)c3)CC[C@]3(C)C(CCC4[C@@]5(C)CC[C@H](O)C(C)(C)C5CC[C@]43C)C12 (some centres unmarked)
-- reply 8.3

* * *

- Tested on: HIV-1NL4-3
- assay_explanation: P4-MAGI assay
- Assay type: cell-based
- measurement_context: Human immunodeficiency virus 1, 24 h, P4 cells, 24 hour incubation, β-galactosidase expression; read-out: P4-MAGI IC50
observation_type: pIC50
FYI, pIC50 means -log10 of a concentration in mol per litre.

Example cases with answers are listed next.
C=C(C)[C@@H]1CC[C@]2(C(=O)NCCc3cccc(C(=O)NCc4ccc(C(=O)N[C@@H](C(=O)O)[C@H](C)O)cc4)c3)CC[C@]3(C)C(CCC4[C@@]5(C)CC[C@H](O)C(C)(C)C5CC[C@]43C)C12 (stereo partly shown)    7.82
C=C(C)[C@@H]1CC[C@]2(C(=O)NCc3cccc(C(=O)NCC(C)(C)c4cccc(C(=O)O)c4)c3)CC[C@]3(C)C(CCC4[C@@]5(C)CC[C@H](O)C(C)(C)C5CC[C@]43C)C12 (stereo partly shown)    7.40
C=C(C)[C@@H]1CC[C@]2(C(=O)NCCc3cccc(C(=O)NCc4ccc(C(=O)N5CCNC(C(=O)O)C5)cc4)c3)CC[C@]3(C)C(CCC4[C@@]5(C)CC[C@H](O)C(C)(C)C5CC[C@]43C)C12 (stereo partly shown)    7.74
C=C(C)[C@@H]1CC[C@]2(C(=O)NCc3cccc(C(=O)NCc4ccccc4C(=O)O)c3)CC[C@]3(C)C(CCC4[C@@]5(C)CC[C@H](O)C(C)(C)C5CC[C@]43C)C12 (stereo partly shown)    6.06
C=C(C)[C@@H]1CC[C@]2(C(=O)NCCc3cccc(C(=O)NCc4ccccn4)c3)CC[C@]3(C)C(CCC4[C@@]5(C)CC[C@H](O)C(C)(C)C5CC[C@]43C)C12 (stereo partly shown)    7.62
C=C(C)[C@@H]1CC[C@]2(C(=O)NCCc3cccc(C(=O)NCc4ccc(C(=O)OC)cn4)c3)CC[C@]3(C)C(CCC4[C@@]5(C)CCC(=O)C(C)(C)C5CC[C@]43C)C12 (stereo partly shown)    7.54
C=C(C)[C@@H]1CC[C@]2(C(=O)NCCc3cccc(C(=O)NCc4ccc(C(=O)N[C@H](CCC(=O)OC)C(=O)OC)cn4)c3)CC[C@]3(C)C(CCC4[C@@]5(C)CC[C@H](O)C(C)(C)C5CC[C@]43C)C12 (stereo partly shown)    7.66
C=C(C)[C@@H]1CC[C@]2(C(=O)NCCc3cccc(C(=O)NCc4cccc(C(=O)OC)n4)c3)CC[C@]3(C)C(CCC4[C@@]5(C)CC[C@H](O)C(C)(C)C5CC[C@]43C)C12 (stereo partly shown)    7.47
C=C(C)[C@@H]1CC[C@]2(C(=O)NCc3cccc(C(=O)NCc4ccc(OCC(=O)O)c(C(=O)O)c4)c3)CC[C@]3(C)C(CCC4[C@@]5(C)CC[C@H](O)C(C)(C)C5CC[C@]43C)C12 (stereo partly shown)    6.21

-- ask Look up and report measured pIC50 for this entry: C=C(C)[C@@H]1CC[C@]2(C(=O)NCCc3cccc(C(=O)N[C@H](C)C4CCC(C(=O)OC)CC4)c3)CC[C@]3(C)C(CCC4[C@@]5(C)CC[C@H](O)C(C)(C)C5CC[C@]43C)C12 (stereo partly shown)
-- reply 7.41

* * *

- System: HIV-1NL4-3
- assay_explanation: P4-MAGI assay
- Type: cell-based
- measurement_context: Human immunodeficiency virus 1, 24 h, P4 cells, 24 hour incubation, β-galactosidase expression; read-out: P4-MAGI IC50
Criterion met if IC50 is below 30 nM. Criterion not met if not; exact matches included in Criterion not met.

C=C(C)[C@@H]1CC[C@]2(C(=O)NCCc3cccc(C(=O)NCc4ccc(C(=O)N[C@H](Cc5c[nH]cn5)C(=O)OC)cc4)c3)CC[C@]3(C)C(CCC4[C@@]5(C)CC[C@H](O)C(C)(C)C5CC[C@]43C)C12 (stereo partly drawn) [Example 170]    Criterion met
C=C(C)[C@@H]1CC[C@]2(C(=O)NCc3cccc(C(=O)NCCc4ccccc4C(=O)O)c3)CC[C@]3(C)C(CCC4[C@@]5(C)CC[C@H](O)C(C)(C)C5CC[C@]43C)C12 (stereo partly drawn) [Example 10]    Criterion not met
C=C(C)[C@@H]1CC[C@]2(C(=O)NCc3cccc(C(=O)NCc4ccc(OCCCC(=O)O)c(C(=O)O)c4)c3)CC[C@]3(C)C(CCC4[C@@]5(C)CC[C@H](O)C(C)(C)C5CC[C@]43C)C12 (stereo partly drawn) [Example 117]    Criterion not met
CC(O)(CO)[C@@H]1CC[C@]2(C(=O)NCc3cccc(C(=O)NCCCCC(=O)O)c3)CC[C@]3(C)C(CCC4[C@@]5(C)CC[C@H](O)C(C)(C)C5CC[C@]43C)C12 (single isomer, unassigned) [Example 139]    Criterion not met
C=C(C)[C@@H]1CC[C@]2(C(=O)NCc3cccc(C(=O)NCc4ccc(C(=O)O)cc4F)c3)CC[C@]3(C)C(CCC4[C@@]5(C)CC[C@H](O)C(C)(C)C5CC[C@]43C)C12 (stereo partly drawn) [Example 22]    Criterion met
C=C(C)[C@@H]1CC[C@]2(C(=O)NCCc3cccc(C(=O)NCc4ccc(C(=O)NCCN5CCOCC5)cc4)c3)CC[C@]3(C)C(CCC4[C@@]5(C)CC[C@H](O)C(C)(C)C5CC[C@]43C)C12 (stereo partly drawn) [Example 136]    Criterion met

-- ask State whether 30 nM exceeds IC50 recorded for C=C(C)[C@@H]1CC[C@]2(C(=O)NCCc3cccc(C(=O)NCc4ccc(C(=O)N[C@@H](C(=O)O)[C@H](C)N5CCN(C)CC5)cc4)c3)CC[C@]3(C)C(CCC4[C@@]5(C)CC[C@H](O)C(C)(C)C5CC[C@]43C)C12 (stereo partly drawn) [Example 177] .
-- reply Criterion met

-- ask State whether 30 nM exceeds IC50 recorded for C=C(C)[C@@H]1CC[C@]2(C(=O)NCc3ccc(C(=O)OC)o3)CC[C@]3(C)C(CCC4[C@@]5(C)CC[C@H](O)C(C)(C)C5CC[C@]43C)C12 (stereo partly drawn) [Example 87] .
-- reply Criterion not met

-- ask State whether 30 nM exceeds IC50 recorded for C=C(C)[C@@H]1CC[C@]2(C(=O)NCc3cccc(-c4noc(Cc5ccc(-c6nnn[nH]6)cc5)n4)c3)CC[C@]3(C)C(CCC4[C@@]5(C)CC[C@H](O)C(C)(C)C5CC[C@]43C)C12 (stereo partly drawn) [Example 277] .
-- reply Criterion not met

-- ask State whether 30 nM exceeds IC50 recorded for C=C(C)[C@@H]1CC[C@]2(C(=O)NCCc3cccc(C(=O)NCc4ccc(OCCCN5CCN(S(=O)(=O)CC)CC5)cc4)c3)CC[C@]3(C)C(CCC4[C@@]5(C)CC[C@H](O)C(C)(C)C5CC[C@]43C)C12 (stereo partly drawn) [Example 236] .
-- reply Criterion met

-- ask State whether 30 nM exceeds IC50 recorded for C=C(C)[C@@H]1CC[C@]2(C(=O)NCCc3cccc(C(=O)NCc4ccc(C(=O)NCCN(C)C)cc4)c3)CC[C@]3(C)C(CCC4[C@@]5(C)CC[C@H](O)C(C)(C)C5CC[C@]43C)C12 (stereo partly drawn) [Example 135] .
-- reply Criterion not met

-- ask State whether 30 nM exceeds IC50 recorded for C/C(=C/C#N)[C@@H]1CC[C@]2(C(=O)NCCc3cccc(C(=O)NCc4ccc(C(=O)O)cn4)c3)CC[C@]3(C)C(CCC4[C@@]5(C)CC[C@H](O)C(C)(C)C5CC[C@]43C)C12 (stereo partly drawn) [Example 269] .
-- reply Criterion met

-- ask State whether 30 nM exceeds IC50 recorded for C=C(C)[C@@H]1CC[C@]2(C(=O)NCc3cccc(C(=O)NCc4ccc(OCCCO)c(C(=O)O)c4)c3)CC[C@]3(C)C(CCC4[C@@]5(C)CC[C@H](O)C(C)(C)C5CC[C@]43C)C12 (stereo partly drawn) [Example 125] .
-- reply Criterion not met

-- ask State whether 30 nM exceeds IC50 recorded for C=C(C)[C@@H]1CC[C@]2(C(=O)NCCc3cccc(C(=O)NC(Cc4ccc(O)cc4)C(=O)OC)c3)CC[C@]3(C)C(CCC4[C@@]5(C)CC[C@H](O)C(C)(C)C5CC[C@]43C)C12 (stereo partly drawn) [Example 144] .
-- reply Criterion not met

-- ask State whether 30 nM exceeds IC50 recorded for C=C(CSCCC(=O)O)[C@@H]1CC[C@]2(C(=O)NCCc3cccc(C(=O)NCc4ccc(C(=O)O)cc4)c3)CC[C@]3(C)C(CCC4[C@@]5(C)CC[C@H](O)C(C)(C)C5CC[C@]43C)C12 (stereo partly drawn) [Example 268] .
-- reply Criterion not met

-- ask State whether 30 nM exceeds IC50 recorded for C=C(C)[C@@H]1CC[C@]2(C(=O)NCc3cccc(C(=O)NCCc4ccc(F)c(C(=O)O)c4)c3)CC[C@]3(C)C(CCC4[C@@]5(C)CC[C@H](O)C(C)(C)C5CC[C@]43C)C12 (stereo partly drawn) [Example 32] .
-- reply Criterion met

-- ask State whether 30 nM exceeds IC50 recorded for C=C(C)[C@@H]1CC[C@]2(C(=O)NCCc3cccc(C(=O)NCc4ccc(C(=O)OC)cc4)c3F)CC[C@]3(C)C(CCC4[C@@]5(C)CC[C@H](O)C(C)(C)C5CC[C@]43C)C12 (stereo partly drawn) [Example 93] .
-- reply Criterion not met

-- ask State whether 30 nM exceeds IC50 recorded for C=C(C)[C@@H]1CC[C@]2(C(=O)NCc3cccc(C(=O)NCC(C)c4cccc(C(=O)O)c4)c3)CC[C@]3(C)C(CCC4[C@@]5(C)CC[C@H](O)C(C)(C)C5CC[C@]43C)C12 (stereo partly drawn) [Example 19] .
-- reply Criterion met
